Molecular target: T1, hCD112R mFC recombinant protein (human; murine, UniProt Q6DKI7 41-160)
T1 construct: range 41-160; expressed in 293E cells; also called hCD112R ECD mFC; hCD112R-ECD-mFC; not shown: murine IgG2a Fc domain (MX2-mFc vector)
T1 sequence (looked up): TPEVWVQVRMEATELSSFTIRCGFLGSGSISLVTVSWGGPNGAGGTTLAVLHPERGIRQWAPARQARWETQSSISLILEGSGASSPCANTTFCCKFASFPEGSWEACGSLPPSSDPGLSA
Assay: FACS competition, hCD112R mFc on CHO CD112 cells; IC50 COM701/IC50 antibody
Below, each of the binders is paired with its reported Relative activity (%) value.
Give just the numeric value; % need not be written.

Below: 4 binders and their reported Relative activity (%).
| Binder | Reading |
| --- | --- |
| Hu36 (antibody, IgG4, V domains shown, humanized IgG4) VH: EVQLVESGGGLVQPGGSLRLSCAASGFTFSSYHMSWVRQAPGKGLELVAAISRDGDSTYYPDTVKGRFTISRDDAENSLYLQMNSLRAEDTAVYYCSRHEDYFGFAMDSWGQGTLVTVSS VL: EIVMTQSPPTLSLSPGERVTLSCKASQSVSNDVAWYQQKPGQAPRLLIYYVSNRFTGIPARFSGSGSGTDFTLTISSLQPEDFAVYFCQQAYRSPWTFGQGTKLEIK | 146 |
| Hu3 (antibody, IgG4, V domains shown, humanized IgG4; also called Hu-03) VH: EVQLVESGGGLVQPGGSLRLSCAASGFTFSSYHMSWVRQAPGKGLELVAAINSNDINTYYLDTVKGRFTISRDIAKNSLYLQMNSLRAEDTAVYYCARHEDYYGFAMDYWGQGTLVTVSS VL: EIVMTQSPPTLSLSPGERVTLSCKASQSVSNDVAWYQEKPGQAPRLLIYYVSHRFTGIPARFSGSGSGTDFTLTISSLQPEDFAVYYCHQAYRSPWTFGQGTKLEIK | 93.9 |
| Hu24 (antibody, IgG4, V domains shown, humanized IgG4) VH: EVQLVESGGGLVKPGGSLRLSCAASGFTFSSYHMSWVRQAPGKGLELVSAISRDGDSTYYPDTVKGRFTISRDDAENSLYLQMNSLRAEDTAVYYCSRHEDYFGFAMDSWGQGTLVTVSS VL: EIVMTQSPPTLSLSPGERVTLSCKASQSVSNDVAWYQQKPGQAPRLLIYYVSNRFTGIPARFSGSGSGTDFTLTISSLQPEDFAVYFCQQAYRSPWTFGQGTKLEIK | 124 |
| Hu57 (antibody, IgG4, V domains shown, humanized IgG4) VH: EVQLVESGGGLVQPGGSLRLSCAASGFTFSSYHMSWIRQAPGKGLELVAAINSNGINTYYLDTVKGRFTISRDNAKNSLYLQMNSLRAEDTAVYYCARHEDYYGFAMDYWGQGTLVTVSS VL: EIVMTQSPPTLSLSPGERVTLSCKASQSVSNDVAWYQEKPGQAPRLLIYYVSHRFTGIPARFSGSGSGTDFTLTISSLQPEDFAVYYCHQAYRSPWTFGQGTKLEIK | 66.2 |

Next, consider the following binder.
Give its Relative activity (%) value. Item: Hu26 (antibody, IgG4, V domains shown, humanized IgG4) VH: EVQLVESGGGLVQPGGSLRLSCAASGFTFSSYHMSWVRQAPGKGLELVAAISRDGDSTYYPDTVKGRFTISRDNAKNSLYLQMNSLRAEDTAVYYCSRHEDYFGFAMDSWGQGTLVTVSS VL: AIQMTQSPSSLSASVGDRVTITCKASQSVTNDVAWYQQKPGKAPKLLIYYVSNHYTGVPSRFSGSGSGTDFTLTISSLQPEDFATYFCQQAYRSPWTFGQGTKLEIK 145
